# EXPERIMENT_NOTES: protein stability index of a GFP-peptide fusion (yeast GPS) (PSI 1-4); higher = more stable; sorted into four equal gates, so the index is relative within each strain
# TEST_CONDITIONS: san1∆
OBSERVED_PROPERTY: protein stability index

* PRQRMEEVVSNDEGVWD [PRP8] | 2.87
* TQVNILKENNAILQKSL [YIL149C/MLP2] | 2.63
* IEPLEINIQSFKDVEHI [BRR2] | 2.12
* GMIVISMENYHLLIKII [SRB8] | 2.71
* KAEVTQLSNGIVVATEH [COR1] | 3.18
* VDPKRLAMVIIKEFVDD [DSN1] | 3.31
* QLGPQTPAFNTAILQRQ [ECM29] | 1.41
* KLVRESELLGGTFKSTL [QCR2] | 2.35

This collection of values is drawn from the supplement of paper PMC9732359.
